biological target: CTLA-4 Fc (UniProt P16410); test: filter; conditions: 5-BrdU replaces T; apparent photocrosslink KD; plateau 7%
Sequence (P16410 36-161): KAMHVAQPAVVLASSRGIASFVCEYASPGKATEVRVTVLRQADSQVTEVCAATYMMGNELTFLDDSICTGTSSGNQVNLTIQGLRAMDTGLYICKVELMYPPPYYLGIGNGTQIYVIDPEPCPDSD
REPORTED_PROPERTY: Kd
Write the figure, then the unit, nothing else.

Request body: readout Kd, system CTLA-4 Fc (UniProt P16410), query ATATATATGGGAGGACGATGCGGGACGCTAATACTTCTGGAGTGGAACGGTTTCAGACGACGAGCGGGAAAAAAAA [CTLA-4 Fc pool 101 clone 60] . Return the value.
8 nM

====

system: Collagen; assay: filter; conditions: 5-BrdU replaces T; apparent photocrosslink KD; plateau 25%
REPORTED_PROPERTY: pKd
Recall that pKd is obtained by taking minus log10 of the concentration measured in molar.

# lookup: pKd of ATATATATGGGAGGACGATGCGGCTACTCCTCCTTAACCCGGGTCTTGTGGCCCAGACGACGAGCGGGAAAAAAAA [Collagen pool 100 clone 36]
9.12

====

target: alpha-thrombin (Homo sapiens) (UniProt P00734+P00734); assay: filter; conditions: 5-BrdU replaces T; apparent photocrosslink KD; plateau 6%; rate 0.4
REPORTED_PROPERTY: Kd
Write the figure, then the unit, nothing else.

# lookup: Kd of ATATATATGGGAGGACGATGCGGGAGGAGCTGATGGGTGGTGAGGTTGGCCAGACGACGAGCGGGAAAAAAAA [Thrombin pool 5 clone 51]
0.04 nM

====

Biological target: P-Selectin (Homo sapiens)
Sequence: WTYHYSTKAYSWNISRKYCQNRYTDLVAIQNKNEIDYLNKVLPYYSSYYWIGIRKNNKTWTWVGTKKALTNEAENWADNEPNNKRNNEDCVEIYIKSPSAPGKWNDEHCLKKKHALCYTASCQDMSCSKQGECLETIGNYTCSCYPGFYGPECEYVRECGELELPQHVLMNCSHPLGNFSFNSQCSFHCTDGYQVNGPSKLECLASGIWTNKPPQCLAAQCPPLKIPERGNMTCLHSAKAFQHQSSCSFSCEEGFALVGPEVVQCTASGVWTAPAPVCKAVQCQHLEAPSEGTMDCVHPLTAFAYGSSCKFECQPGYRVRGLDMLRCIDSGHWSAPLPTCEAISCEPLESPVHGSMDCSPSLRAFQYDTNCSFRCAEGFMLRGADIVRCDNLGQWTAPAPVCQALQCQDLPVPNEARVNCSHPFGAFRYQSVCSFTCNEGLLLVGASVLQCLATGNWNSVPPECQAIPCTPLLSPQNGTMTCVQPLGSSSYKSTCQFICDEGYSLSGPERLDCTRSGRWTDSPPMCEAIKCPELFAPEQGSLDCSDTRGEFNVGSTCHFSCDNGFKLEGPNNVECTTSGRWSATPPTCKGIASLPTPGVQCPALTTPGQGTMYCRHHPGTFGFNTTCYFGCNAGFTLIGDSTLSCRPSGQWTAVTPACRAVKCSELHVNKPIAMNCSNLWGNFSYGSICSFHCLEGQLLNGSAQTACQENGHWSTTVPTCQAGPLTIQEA
Assay: filter
Settings: 5-BrdU replaces T; apparent photocrosslink KD; plateau 39%; rate 1.54; same sequence as SEQ 39
REPORTED_PROPERTY: pKd
Recall that pKd is obtained by taking minus log10 of the concentration measured in molar.

Request body: readout pKd, system P-Selectin (Homo sapiens), query ATATATATGGGAGGACGATGCGGCCATACGCACTTCAGTGGGGATAATCCAACTGGTTTGGTGCAGACGACGAGCGGGAAAAAAAA [P-selectin pool 014 clone 95] . Return the value.
7.35

====

target: Thrombopoietin (Tpo); test: filter; conditions: 5-BrdU replaces T; apparent photocrosslink KD; plateau 50%
REPORTED_PROPERTY: pKd
Recall that pKd is obtained by taking minus log10 of the concentration measured in molar.

# lookup: pKd of ATATATATGGGAGGACGATGCGGGCACACCCAACCTTGCTTCTTCAATCTAATCTCCACTTTGCAGACGACGAGCGGGAAAAAAAA [Tpo pool 059 clone 34]
7.19

====

target: Angiogenin (UniProt P03950); experiment: filter; conditions: 5-BrdU replaces T; apparent photocrosslink KD; plateau 31%; rate 3.5
Sequence (P03950 25-147): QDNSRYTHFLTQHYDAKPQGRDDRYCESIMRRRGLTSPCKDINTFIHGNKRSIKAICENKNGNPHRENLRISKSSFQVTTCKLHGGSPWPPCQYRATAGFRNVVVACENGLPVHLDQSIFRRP
REPORTED_PROPERTY: pKd
Recall that pKd is obtained by taking minus log10 of the concentration measured in molar.

# lookup: pKd of ATATATATGGGAGGACGATGCGGGCCCTACTTGCATGAATATCCACTCCTAGGCTTGAGGGAGCAGACGACGAGCGGGAAAAAAAA [Angiogenin pool 011 clone 85]
9.70

====

Biological target: P-Selectin (Homo sapiens) (UniProt P16109)
Sequence: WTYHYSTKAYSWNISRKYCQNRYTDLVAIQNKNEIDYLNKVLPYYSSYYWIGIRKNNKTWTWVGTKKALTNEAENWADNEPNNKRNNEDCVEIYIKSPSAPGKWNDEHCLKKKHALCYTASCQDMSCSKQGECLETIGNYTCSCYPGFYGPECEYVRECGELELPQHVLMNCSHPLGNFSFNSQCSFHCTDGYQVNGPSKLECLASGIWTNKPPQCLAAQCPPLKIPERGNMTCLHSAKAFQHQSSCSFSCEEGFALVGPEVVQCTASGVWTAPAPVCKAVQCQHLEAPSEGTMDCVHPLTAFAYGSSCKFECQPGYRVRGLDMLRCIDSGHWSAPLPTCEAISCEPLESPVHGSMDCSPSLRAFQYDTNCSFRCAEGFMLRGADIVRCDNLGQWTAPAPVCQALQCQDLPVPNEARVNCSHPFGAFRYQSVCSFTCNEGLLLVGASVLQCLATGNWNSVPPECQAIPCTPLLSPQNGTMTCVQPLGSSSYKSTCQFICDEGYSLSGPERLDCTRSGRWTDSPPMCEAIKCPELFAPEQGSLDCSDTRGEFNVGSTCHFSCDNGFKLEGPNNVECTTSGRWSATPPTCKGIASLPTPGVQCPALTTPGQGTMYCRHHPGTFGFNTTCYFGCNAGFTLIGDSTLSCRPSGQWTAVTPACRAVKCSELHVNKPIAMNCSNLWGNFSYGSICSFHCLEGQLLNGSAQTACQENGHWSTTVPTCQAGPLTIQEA
Assay: filter
Details: 5-BrdU replaces T; apparent photocrosslink KD; plateau 59%; rate 1.36
REPORTED_PROPERTY: pKd
Recall that pKd is obtained by taking minus log10 of the concentration measured in molar.

# lookup: pKd of ATATATATGGGAGGACGATGCGGCCATGAACCCATCCTCTGGTTCATAATCGACGTGTTCGTGCAGACGACGAGCGGGAAAAAAAA [P-selectin pool 014 clone 17]
7.74

====

molecular target: beta-Nerve Growth Factor (beta-NGF) (UniProt P01138); assay: filter; details: 5-BrdU replaces T; apparent photocrosslink KD; plateau 66%; rate 1.2; Table 7 sequence differs slightly from listing
Sequence (P01138 122-241): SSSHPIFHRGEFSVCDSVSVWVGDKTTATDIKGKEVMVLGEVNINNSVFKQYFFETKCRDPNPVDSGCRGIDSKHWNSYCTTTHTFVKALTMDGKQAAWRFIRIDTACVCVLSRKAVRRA
REPORTED_PROPERTY: pKd
Recall that pKd is obtained by taking minus log10 of the concentration measured in molar.

# lookup: pKd of ATATATATGGGAGGACGATGCGGGCACACTTAAATCCACTTCACCTTACAATTCCTTTATCTGCAGACGACGAGCGGGAAAAAAAA [beta-NGF pool 031 clone 17]
9.68

====

target: platelet-derived growth factor (PDGF) (Homo sapiens); experiment: filter; settings: 5-BrdU replaces T; apparent photocrosslink KD; plateau 36%; rate 0.29
REPORTED_PROPERTY: pKd
Recall that pKd is obtained by taking minus log10 of the concentration measured in molar.

# lookup: pKd of ATATATATGGGAGGACGATGCGGGCCAACCCCTAGTGAACAACAACACTCCCACAGACGACGAGCGGGAAAAAAAA [PDGF pool 4 clone 87]
8.70
